target: RIPK2 (Homo sapiens (Human)); experiment: KinaseProfiler off-target kinase profiling; assay type: biochemical; conditions: 10 μM, ATP near Km
Sequence (O43353 whole entry): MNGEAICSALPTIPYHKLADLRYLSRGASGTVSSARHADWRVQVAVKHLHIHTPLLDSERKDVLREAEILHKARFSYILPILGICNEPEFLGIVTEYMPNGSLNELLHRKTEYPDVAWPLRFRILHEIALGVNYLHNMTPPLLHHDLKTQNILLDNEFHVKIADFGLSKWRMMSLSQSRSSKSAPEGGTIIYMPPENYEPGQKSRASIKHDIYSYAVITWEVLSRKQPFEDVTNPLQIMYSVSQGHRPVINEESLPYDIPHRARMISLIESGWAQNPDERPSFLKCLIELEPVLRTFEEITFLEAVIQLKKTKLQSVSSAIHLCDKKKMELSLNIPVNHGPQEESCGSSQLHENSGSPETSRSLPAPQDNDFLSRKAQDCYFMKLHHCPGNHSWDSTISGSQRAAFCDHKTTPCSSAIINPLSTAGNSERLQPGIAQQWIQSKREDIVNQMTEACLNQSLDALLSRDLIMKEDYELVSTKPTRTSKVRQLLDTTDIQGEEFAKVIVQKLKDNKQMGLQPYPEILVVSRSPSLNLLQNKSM
resultType: Avg. POC (POC)
Give bare numbers, in POC.

Cc1c(-c2cnn(C)c2)nn(-c2ccccc2)c1NC(=O)N[C@H]1CCCc2ccccc21
108
COCc1ccc2c(c1)C(NC(=O)Nc1c(C)c(-c3cnn(C)c3)nn1-c1ccccc1)COC2 (stereo not shown)
99.5
Cc1c(-c2ccc(=O)n(C)c2)nn(-c2ccccc2)c1NC(=O)NC1CN(CC(F)(F)F)Cc2ccccc21 (stereo not shown)
98

In the following, a different molecule is considered.
Avg. POC measured on Cc1c(-c2cnn(C)c2)nn(-c2ccccc2)c1NC(=O)NC1CCOc2cc(F)ccc21 (stereo not shown) = 99
